List of activation values.
# assaySystem: Caspase-3 (Homo sapiens)
# assayNotes: procaspase-3 enzyme activation – biochemical, absorbance, PC-3 D3A mutant, single concentration, primary screen (AID 463141);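 note: 0% = DMSO alone and 100% = DMSO wells spiked with extra 5 µM PC-3 D3A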
# settings: recombinant procaspase-3 D3A, Ac-DEVD-pNA absorbance 405 nm; at 8.5 µM; active compounds read high
In all, about 330,000 compounds went through this assay and about 350 (0.11%) were called active. This excerpt belongs to a sample that is enriched for actives.

N#Cc1c(NCCO)ccc([N+](=O)[O-])c1NCCO : 3.1% (inactive)
COC(=O)c1nc2n(n1)C(c1ccc([N+](=O)[O-])cc1)C(C(=O)Nc1ccc(Cl)cc1)=C(C)N2 (centres undefined) : 3.68% (inactive)
O=C(CSC1=NS(=O)(=O)c2cc(F)ccc2N1)Nc1ccccc1F : -6.67% (inactive)

As a next step, examine the compound that follows.
So what activation did CCC(C)N1CC(=O)N2Cc3[nH]c4ccccc4c3C[C@H]2C1=O (some centres undefined) get with Caspase-3 (Homo sapiens)?
0.63% (inactive)

###

# assaySystem: Caspase-3 (Homo sapiens) (UniProt P42574)
# Sequence (P42574 whole entry D9A/D28A/D175A): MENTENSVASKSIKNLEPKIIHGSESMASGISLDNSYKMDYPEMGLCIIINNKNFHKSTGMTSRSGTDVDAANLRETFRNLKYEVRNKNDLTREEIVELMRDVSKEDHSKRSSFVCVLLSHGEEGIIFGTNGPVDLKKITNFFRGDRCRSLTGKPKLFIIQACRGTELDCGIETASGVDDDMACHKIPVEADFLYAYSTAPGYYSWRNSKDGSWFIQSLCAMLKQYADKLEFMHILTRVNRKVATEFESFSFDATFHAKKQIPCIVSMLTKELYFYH
# assayNotes: procaspase-3 enzyme activation – biochemical, absorbance, PC-3 D3A mutant, single concentration, primary screen (AID 463141);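 note: 0% = DMSO alone and 100% = DMSO wells spiked with extra 5 µM PC-3 D3A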
# settings: recombinant procaspase-3 D3A, Ac-DEVD-pNA absorbance 405 nm; at 8.5 µM
In all, about 330,000 compounds went through this assay and about 350 (0.11%) were called active.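 How the source made its calls: active means activation above the mean of all tested compounds plus 3 SD (cut at about 21% in these data); inactive means the rest.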 Only a selection was taken, and actives are over-represented in it overall.
Parameter call: string, one of Y = active, N = inactive

Answered cases to consult:
COc1ccc(NS(=O)(=O)c2ccc(C)c(C(=O)N(C)Cc3ccc(OC)cc3OC)c2)cc1 : N
CCC(=O)Nc1c(C)n[nH]c1C : N
Oc1ccc(-c2onc3ccc(Cl)cc23)cc1 : N
O=C(NCc1ccccc1)[C@@H]1CSC2c3ccccc3C(=O)N21 (some centres undefined) : N
COc1ccc(-c2noc(CCC(=O)N3CCN(c4cccc(C)c4)CC3)n2)cc1 : N
Cc1ccc(C(=O)N2CCCC(c3ccccc3)=N2)cc1 : N
Cc1ccc(N(C(=O)C(F)(F)F)C(C(=O)NC2CCCCC2)c2ccncc2)cc1C (centres undefined) : N
Fc1ccc(N2N=C(c3cccs3)CC2c2ccco2)c(F)c1 (centres undefined) : Y
COc1ccc(/C=N/Nc2nc(-c3ccc(C)cc3)c(C#N)c(=O)[nH]2)cc1 : N
O=[N+]([O-])c1ccc(C=Nc2ccc(Cl)cc2Cl)s1 : N

Recorded test outcome, item CCOc1ccccc1CN1CCN(C2CCC2)CC1CCO (centres undefined)
N

Recorded test outcome, item CCCN(C(=O)c1nc2nccc(C)n2n1)c1c(N)n(Cc2ccccc2)c(=O)[nH]c1=O
N

Recorded test outcome, item O=C(c1ccc(N2CCOCC2)c([N+](=O)[O-])c1)N1CCN(S(=O)(=O)c2cccs2)CC1
N

###

# assaySystem: Caspase-3 (Homo sapiens) (UniProt P42574)
# assayNotes: procaspase-3 enzyme activation – biochemical, absorbance, PC-3 D3A mutant, single concentration, primary screen (AID 463141);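 note: 0% = DMSO alone and 100% = DMSO wells spiked with extra 5 µM PC-3 D3A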
# settings: recombinant procaspase-3 D3A, Ac-DEVD-pNA absorbance 405 nm; at 8.5 µM
About 350 (0.11%) of roughly 330,000 compounds were called active.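 The calls were made as follows: active = activation above the mean of all tested compounds plus 3 SD (cut at about 21% in these data); inactive = the rest.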 This is one part of a sample in which actives are shown more often than they occur.
Parameter call: string, one of 1.0 (active), 0.0 (inactive)

CCOc1ccc2c(=O)c(-c3ccc4c(c3)OCCCO4)c(C)oc2c1 : 0.0
CC(OC(=O)c1ccc2noc(-c3ccccc3)c2c1)C(N)=O (stereo unspecified) : 0.0
COC(=O)Cc1c(C)c2ccc(OCC(=O)NCc3ccc4c(c3)OCO4)cc2oc1=O : 0.0
C=CCNc1nc(Nc2ccc(Cl)cc2)nc(OC)n1 : 0.0
CCC(C)(C)NC(=O)c1cc([N+](=O)[O-])ccc1N1CCCCC1 : 0.0

Recorded test outcome, item CC(=O)Nc1ccc(NC(=O)C(C)OC(=O)c2ccccc2C(=O)c2ccc(Cl)c([N+](=O)[O-])c2)cc1 (stereo unspecified)
0.0

Recorded test outcome, item O=C(COc1ccccc1Cl)N1N=C(c2cccs2)CC1c1ccco1 (stereo unspecified)
0.0

Recorded test outcome, item CCOC(=O)CCC(=O)OCC(=O)NC(C)C1CC2CCC1C2 (stereo unspecified)
0.0

Recorded test outcome, item COc1ccc(/C=N/Nc2ccccc2C(=O)O)cc1
0.0

Recorded test outcome, item COc1ccc2nc(Nc3nc4ccc(NC(C)=O)cc4s3)sc2c1
1.0

Recorded test outcome, item CC(=O)c1ccc(N=C2SCCCN2C(=O)C2CCCCC2)cc1
0.0

Recorded test outcome, item COCc1c(C(=O)N/N=C\c2cccnc2)nnn1-c1nonc1N
0.0

Recorded test outcome, item Cc1cc(C)c2c(-n3cccc3)c(C(=O)NNS(=O)(=O)c3ccc(F)cc3)sc2n1
0.0

Recorded test outcome, item CC(=O)c1ccc(NC(=O)C(C)N(C)CC(=O)Nc2ccccc2Cl)cc1 (stereo unspecified)
0.0

Recorded test outcome, item CC1=C(C(=O)OC(C)(C)C)C(c2ccc(Br)cc2)NC(=O)N1CCCC(=O)O (stereo unspecified)
0.0

Recorded test outcome, item COCCNC(=S)Nc1cc(S(=O)(=O)N2CCOCC2)ccc1N1CCCCC1
0.0
